Overview of reported TGI across a group of compounds:
# System: OVCAR-4 ovarian
# EXPERIMENT_SUMMARY: NCI tumour cell line growth inhibition, 48 h
READOUT_TYPE: TGI

COMPOUND	RESULT
O=C1NC(=O)C(c2c[nH]c3ccccc23)=C1c1c[nH]c2ccccc12	> 25 µM
NS(=O)(=O)c1ccc(N(/C=C/C(=O)C(F)(F)F)CC(=O)c2ccc(F)cc2)cc1	> 100 µM
CCN1CCN(CCC(=O)Nc2cccc(-n3cc(-c4ccncc4)c(-c4ccc(Cl)c(OC)c4)n3)c2)CC1	7.53 µM
Cc1ccc(S(=O)(=O)NNC(=O)Nc2cccc(C(F)(F)F)c2)cc1	> 100 µM
COc1cccc2c1C(=O)c1c(O)c3c(c(O)c1C2=O)C[C@@](O)(C(=O)CO)CC3OC1CC(N(C)CCOCC(OC(C)=O)OC(C)=O)C(O)C(C)O1 (some centres not stated)	> 0.01 µM
CC(C)=CCc1cc2c(cc1O)C1=C(C(=O)C3=C(NCCS3(=O)=O)C1=O)C(C=C(C)C)O2 (configuration not stated)	> 16.7 µM
COc1ccc(-c2csc3c2-n2cccc2C3=O)cc1	> 100 µM
Cc1ccc(N)c(S)c1	43.5 µM
O=C1C2C3C4C1C1C2[C@H](OCc2ccccc2)C3C1[C@H]4OCc1ccccc1 (some centres not stated)	> 100 µM
CCN(CC)C(=O)CCn1ccc(=O)[nH]c1=O	> 100 µM
NC1=C(O)c2cccc3cccc(c23)C1=O	> 100 µM
Cc1nnc2n1N=C(c1cc(F)c(Cl)cc1Cl)/C(=C/c1ccc(-c3ccc([N+](=O)[O-])cc3)o1)S2	> 100 µM
O=C(NCc1cn(Cc2cccc(Oc3ccccc3)c2)nn1)c1cccnc1Nc1ccc(F)cc1	> 100 µM
COC(=O)C(Cc1ccccc1)NC(=O)CSc1nnc(COc2ccc(Cl)cc2)n1-c1ccccc1 (configuration not stated)	64.9 µM
COc1cc2nc3n(c2cc1OC)C(O)c1c(Cl)nc(SC)nc1S3 (configuration not stated)	> 39 µM
CCNC1=C(NC(=O)c2ccc(F)cc2)C(=O)c2ccccc2C1=O	> 100 µM
CC(=O)/C(=C\c1ccc(Cl)cc1)c1ccccc1	> 100 µM
CCN(CC)CC(=O)NC1c2ccccc2Oc2ccccc21	> 100 µM
CC1(C)N=C(N)N=C(N)N1c1ccc(OCCCNC(=O)Nc2ccc(S(=O)(=O)F)cc2)c(Cl)c1	> 100 µM
CN(C)CCC(N)(P(=O)([O-])[O-])P(=O)([O-])[O-].N.N.[Pt+2]	> 100 µM
O=C(CCC(=O)c1ccsc1)c1ccsc1	> 100 µM
O=C(O)c1ccccc1CN1CCCC(C(=O)O)C1 (configuration not stated)	> 100 µM
Cc1c(C(Cc2ccccc2N(C)C(=O)/C=C\C(=O)O)c2c[nH]c3ccccc23)c2ccccc2n1C (configuration not stated)	55.5 µM
CC1=C(CCCOC(=O)[C@H](N)CC(C)C)C2=C(C)C3(CC3)[C@@](C)(O)C(=O)C2=C1	21.6 µM
O=C(O)/C=C/c1ccc(O)c(O)c1	> 100 µM
CC(C)=CCC/C(C)=C/CC/C(C)=C/CSC[C@H](NC(=O)CCCCCN1CCN(C)CC1)C(=O)NC1CCCCCC1	13.1 µM
CC(C)(C)CC(C)(C)c1ccc(OCCO)cc1	21.5 µg/mL
C=CCN1C(=O)CC2[C@@H]3CCc4cc(O)ccc4C3CC[C@]2(C)C1=O (some centres not stated)	> 10 µM
CC(C#N)(c1ccccc1)N(CCc1ccccc1)C(=O)Oc1ccccc1 (configuration not stated)	> 100 µM
Cc1nc2ccc(F)cc2c2c1CCS2	> 100 µM
ClC1=C(Cl)C(Cl)(C2(Cl)C(Cl)=C(Cl)C(Cl)=C2Cl)C(Cl)=C1Cl	0.509 µM
Cc1cccc(Nc2nc3ccccc3nc2NS(=O)(=O)c2ccc(N)cc2)c1	42.6 µM
COC(=O)C(=O)C(C#N)c1nc2ccccc2s1 (configuration not stated)	> 100 µM
O=C(N/N=C/c1ccc(Cl)cc1)c1ccc(NC(=O)c2ccccn2)cc1	10.6 µM
C[N+]1(C)C2CC(OC(=O)C(CO)c3ccccc3)CC1C1OC12 (configuration not stated)	> 100 µM
Cn1cc(-c2ccc3nc(-c4ccc(CC(=O)Nc5cc(C(C)(C)C)no5)cc4)cnc3c2)cn1	> 3 µM
C=C1c2nc3ccccc3n2C=C(c2ccc(OC)cc2)N1c1ccc(OCCN2CCCCC2)cc1	> 100 µM
CC1(C)CNC(=O)C2(CCCO2)CNC(C)(C)CNC(=O)C2(CCCO2)CN1 (configuration not stated)	> 10 µM
O=C1CSCC(=O)Nc2ccccc2N1	> 100 µM
O=c1c2ccccc2nc(-c2cccc([N+](=O)[O-])c2)n1O	> 100 µM
CN1CCN(Cn2nc(COc3ccccc3Cl)n(/N=C/c3ccc(-c4ccc(Cl)cc4Cl)o3)c2=S)CC1	45.2 µM
COC(=O)c1cc2ccc(O)c(O)c2cn1	21.7 µM
